assayTarget: Neurogenic locus notch homolog protein 2 (Homo sapiens)
assayDetails: small molecules binding Notch2 protein – biochemical, small-molecule microarray, 635 nm fluorescence, stem cell growth factors, primary screen (AID 1073)
assayConditions: higher = more signal
parameterMeasured: composite z-score
Could you keep your reply to the number by itself?

substanceSmiles | composite z-score
COc1ccc(C#Cc2ccc3c(c2)[C@]2(C(=O)N3)[C@H](c3ccc(OCCO)cc3)N3[C@H](c4ccccc4)[C@H](c4ccccc4)OC(=O)[C@H]3[C@@H]2C(=O)Nc2nc3ccccc3s2)cc1 | 1.07
COc1ccc([Si](C)(C)[C@H]2[C@H](CCO)O[C@@]3(C(=O)N(Cc4ccccc4)c4ccc(N5C(=O)COc6ccccc65)cc43)[C@@H]2C)cc1 | 0.167
CC(=O)NCCCC[C@@H]1NC(=O)[C@@H]2C[C@H](C(=O)NCCCCCC[N+](C)(C)C)[C@H](c3cccc(OCCO)c3)N2C1=O | 0.0496
C=C[C@H](C)[C@H](OC(=O)Nc1ccc(OC)cc1)c1ccc(O)c2ccccc12 | -0.714
COc1ccc([Si](C)(C)[C@@H]2[C@@H](CCO)O[C@]3(C(=O)N(Cc4cccc(N(C=O)c5ccccc5)c4)c4ccccc43)[C@H]2C)cc1 | 0.199

Moving on to another molecule below.
Prompt line: I am curious: what composite z-score value has been reported for CC(C)(C)OC(=O)CC[C@@]1(C(=O)N2CCOCC2)N=C(c2ccc(OCCCO)cc2)O[C@@H]1c1ccccc1N=[N+]=[N-] ?
Response line: 1.43

----------
Tested on: Fibrinogen (Alexa647-labelled)
assayDetails: Alexa647-fibrinogen binding to printed small molecules – biochemical, small-molecule microarray, 635/667 nm fluorescence, artefact control for SMM control-protein annotation, profiling panel (AID 1131);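 further: z-score merges 667 nm fluorescence with per-spot signal-to-noise over triplicate slides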
assayConditions: fibrinogen-A647 binding fluorescence, higher = more signal
Collected composite z-score values appear next to each entry.
Could you keep your reply to the number by itself?

Example entries and their recorded answers appear below.
compound | composite z-score
O=C1C[C@@](C(=O)O)(c2ccc([N+](=O)[O-])cc2)[C@@H](c2ccc(CO)cc2I)N1C1CCCCC1 | 0.873
C=C(C)[C@@H]1CC=C(C(O)C2C=CC3C(=O)N(Cc4ccccc4)C(=O)C3N2n2cnnc2)CC1 (stereo not given in full) | 0.818
[N-]=[N+]=NCc1ccccc1C[C@@]1(C(=O)NCc2ccccc2)N=C(c2ccc(OCCCO)cc2)O[C@@H]1c1ccccc1CN=[N+]=[N-] | 0.915
Cc1ccc(N2C(=O)c3ccccc3[C@@H](C(=O)NC(C)C)[C@@H]2c2ccc(CO)cc2)nc1 | -0.756

Prompt line: Which measured composite z-score belongs to CCOC1=C2C(c3ccc(C)cc3)N(S(=O)(=O)c3ccc(C)cc3)CC2n2c(=O)n(-c3ccccc3)c(=O)n2C1 (stereo not given) , tested on Fibrinogen (Alexa647-labelled)?
Response line: 0.933

Prompt line: What do we get for CC(C)N1C(=O)c2ccccc2[C@](C)(C(=O)NCCCN(C)C)[C@@H]1c1ccc(CO)cc1 ?
Response line: 0.562

Prompt line: What do we get for C=C(CCCC)C(=O)CC[C@H](OC(=O)c1ccccc1-c1ccccc1C(=O)O)c1ccc(CO)o1 ?
Response line: 0.954

Prompt line: What do we get for COC(=O)[C@@]1(Cc2ccc(OC)cc2)[C@H]2c3cc(C(=O)N4CCCC4)n(CCc4ccccn4)c3C[C@H]2CN1C(=O)c1ccccc1 ?
Response line: 0.821

Prompt line: What do we get for CN(C)CCCC[C@@H]1NC(=O)[C@@H]2C[C@H](C(=O)NCCCCCN)[C@H](c3ccc(O)cc3)N2C1=O ?
Response line: 0.502

Prompt line: What do we get for COCCOC(=O)N1C(=O)[C@@]2(c3cc(C#CCCO)ccc31)[C@H](C(=O)NC[C@H](O)c1ccccc1)[C@H]1C(=O)O[C@H](c3ccccc3)[C@H](c3ccccc3)N1[C@@H]2c1ccc(OCCO)cc1 ?
Response line: 0.951

Prompt line: What do we get for C=CC[C@]1(C(=O)O)N=C(c2ccc(OCCCO)cc2)O[C@H]1c1ccccc1CN=[N+]=[N-] ?
Response line: -0.276

Prompt line: What do we get for CC(C)CNC(=O)[C@@]1(C)c2ccccc2C(=O)N(C(C)C)[C@H]1c1ccc(CO)cc1 ?
Response line: -1.07

Prompt line: What do we get for COc1cc(NN2C(C(O)c3ccccc3)C=CC3C(=O)N(c4ccccc4)C(=O)C32)cc(OC)c1OC (stereo not given) ?
Response line: 0.967

Prompt line: What do we get for CC(C)C(CO)N1C(=O)[C@@H]2[C@H]3C(=O)OCC=C[C@H]3OC23C=CCN(c2ccc4ccccc4c2)C(=O)[C@@H]13 (stereo not given in full) ?
Response line: -0.581

Prompt line: What do we get for O=C1OCCC/C=C\[C@H]2OC34C=CCN(CCN5CCOCC5)C(=O)[C@H]3N(CCO)C(=O)[C@@H]4C12 (stereo not given in full) ?
Response line: -0.786
